Biological target: T1, human VEGF (hVEGF) (human, UniProt P15692 181-395);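 further: fab variants flowed over hVEGF immobilized on a CM5 chip, rate constants from a one-to-one Langmuir fit, Kd taken as koff over kon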
T1 construct: also called VEGF-A
T1 sequence: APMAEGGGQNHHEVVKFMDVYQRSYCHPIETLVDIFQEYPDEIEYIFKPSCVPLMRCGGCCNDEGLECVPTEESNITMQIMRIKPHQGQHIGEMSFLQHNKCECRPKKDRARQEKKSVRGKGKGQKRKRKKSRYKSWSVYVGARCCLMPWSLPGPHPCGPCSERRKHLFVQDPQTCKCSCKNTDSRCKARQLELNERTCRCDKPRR
Experiment: SPR
Property Measured: kon (M⁻¹ s⁻¹)
Write the answer as a number in M⁻¹ s⁻¹, unit excluded.

Before answering, review these 3 worked examples.
G6.31 LC-N94A (Fab, V domains shown, Fab) VH: EVQLVESGGGLVQPGGSLRLSCAASGFTISDYWIHWVRQAPGKGLEWVAGITPAGGYTYYADSVKGRFTISADTSKNTAYLQMNSLRAEDTAVYYCARFVFFLPYAMDYWGQGTLVTVSS VL: DIQMTQSPSSLSASVGDRVTITCRASQDVSTAVAWYQQKPGKAPKLLIYSASFLYSGVPSRFSGSGSGTDFTLTISSLQPEDFATYYCQQGYGAPFTFGQGTKVEIK : 1.56e+06
R19HCLC5 (Fab, V domains shown, Fab) VH: EEQLVEEGGGLVQPGESLRLSCAASGFEISDYWIHWVRQEPGEGLEWVAGITPAGGYEYYADSVEGRFTISADTSENTAYLQMNELRAEDTAVYYCARFVFFLPYAMDYWGQGELVTVSS VL: DIQMTQSPSSLSASVGDRVTITCRASQDVSTAVAWYQQKPGKAPKLLIYSASFLYSGVPSRFSGSGSGTDFTLTISSLQPEDAATYYCQQGYGAPFTFGQGTKVEIK : 707000
HCcombo (Fab, V domains shown, Fab) VH: EEQLVEEGGGLVQPGESLELSCAASGFEISDYWIHWVRQEPGEGLEWVAGITPAGGYEYYADSVEGRFTISADTSENTAYLQMNELRAEDTAVYYCARFVFFLPYAMDYWGQGELVTVSS VL: DIQMTQSPSSLSASVGDRVTITCRASQDVSTAVAWYQQKPGKAPKLLIYSASFLYSGVPSRFSGSGSGTDFTLTISSLQPEDFATYYCQQGYGNPFTFGQGTKVEIK : 2.05e+06

Ask: Which kon is listed for R19HCLC2 (Fab, V domains shown, Fab) VH: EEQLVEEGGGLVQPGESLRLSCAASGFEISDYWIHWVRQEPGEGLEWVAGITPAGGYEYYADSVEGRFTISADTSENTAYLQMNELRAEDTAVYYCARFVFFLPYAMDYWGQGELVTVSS VL: DIQMTQSPSSLSASVGDEVTITCRASQDVSTAVAWYQQKPGEAPKLLIYSASFLYSGVPSRFSGSGSGTDFTLTIESLQPEDAATYYCQQGYGAPFTFGQGTKVEIK ?
Reply: 889000

Ask: Given G6.31 LC-N94A.LC-F83A (Fab, V domains shown, Fab; also called LC-F83A, LC-N94A; LCcombo5) VH: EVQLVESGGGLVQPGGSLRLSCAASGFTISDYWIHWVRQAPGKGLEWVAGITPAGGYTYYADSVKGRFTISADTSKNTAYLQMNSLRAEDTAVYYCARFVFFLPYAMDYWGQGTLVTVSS VL: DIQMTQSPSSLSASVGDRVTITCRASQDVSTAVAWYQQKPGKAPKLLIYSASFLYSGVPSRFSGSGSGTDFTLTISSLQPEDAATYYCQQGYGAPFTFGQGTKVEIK , state its recorded kon.
Reply: 648000
